Target: hERG ion channel (Homo sapiens, UniProt Q12809)
Construct: expressed in transfected cells; host or cells: HEK-293
Sequence (Q12809 whole entry): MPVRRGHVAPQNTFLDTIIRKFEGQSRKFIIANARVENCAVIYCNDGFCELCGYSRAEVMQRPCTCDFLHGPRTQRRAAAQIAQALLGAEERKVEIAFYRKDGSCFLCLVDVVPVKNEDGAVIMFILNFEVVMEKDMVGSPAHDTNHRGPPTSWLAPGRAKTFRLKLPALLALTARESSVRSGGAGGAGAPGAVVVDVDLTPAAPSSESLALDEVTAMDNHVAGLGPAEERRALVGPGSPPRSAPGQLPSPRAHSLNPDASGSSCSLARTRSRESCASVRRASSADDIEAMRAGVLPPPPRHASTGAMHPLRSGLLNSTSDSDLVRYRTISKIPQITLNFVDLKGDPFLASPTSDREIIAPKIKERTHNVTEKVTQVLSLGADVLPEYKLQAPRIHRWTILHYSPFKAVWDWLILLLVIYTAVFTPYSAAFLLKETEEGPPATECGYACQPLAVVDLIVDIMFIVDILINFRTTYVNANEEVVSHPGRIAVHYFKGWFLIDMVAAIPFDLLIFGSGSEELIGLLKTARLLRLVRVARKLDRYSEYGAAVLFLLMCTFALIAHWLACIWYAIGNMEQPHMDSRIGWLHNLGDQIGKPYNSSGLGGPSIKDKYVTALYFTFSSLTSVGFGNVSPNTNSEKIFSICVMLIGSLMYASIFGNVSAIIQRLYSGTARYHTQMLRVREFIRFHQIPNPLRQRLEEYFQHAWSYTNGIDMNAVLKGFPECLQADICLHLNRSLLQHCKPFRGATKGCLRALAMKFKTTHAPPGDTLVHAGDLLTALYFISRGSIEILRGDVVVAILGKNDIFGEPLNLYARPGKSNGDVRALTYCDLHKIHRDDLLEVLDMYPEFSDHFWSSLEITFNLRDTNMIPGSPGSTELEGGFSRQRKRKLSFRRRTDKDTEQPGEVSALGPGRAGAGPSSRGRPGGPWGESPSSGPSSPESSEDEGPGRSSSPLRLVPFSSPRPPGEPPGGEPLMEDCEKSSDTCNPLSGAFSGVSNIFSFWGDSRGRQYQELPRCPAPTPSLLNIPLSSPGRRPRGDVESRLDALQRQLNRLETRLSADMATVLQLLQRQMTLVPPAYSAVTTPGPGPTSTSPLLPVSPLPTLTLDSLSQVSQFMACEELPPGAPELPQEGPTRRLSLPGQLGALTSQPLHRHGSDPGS
Experiment: in vitro
Conditions: human
QUANTITY MEASURED: inhibition at 1 µM (%)
Please give a number only; it is taken to be in %.

// lookup inhibition at 1 µM | system=hERG ion channel (Homo sapiens, UniProt Q12809) | key= `CC(C)n1nc(C(=O)NCC2CCN(CCc3ccc(C(=O)O)cc3)CC2)c2ccccc21`
0.9

* * *

Target: 5-HT6 (UniProt P50406)
pIC50: −log10 of the molar value.
QUANTITY MEASURED: pIC50

Return reported pIC50; argument: `CC(C)n1nc(C(=O)NCC2CCN(CCc3ccc(C(=O)O)cc3)CC2)c2ccccc21`
< 5.00
